Origin of values: ChEMBL document CHEMBL1765019

# SUBJECT_OF_TEST: Neuraminidase (Influenza A virus)
Below, each entry is listed alongside its reported pIC50.
# pIC50 = -log10(concentration in molar units)

Some solved entries appear below for comparison.
INSERT INTO assay_data (compound, subject_of_test, readout_name, value_reported) VALUES
  ('COc1cccc(C2SC[C@@H](C(=O)O)N2C(=O)CN)c1O (mixture of isomers)', 'Neuraminidase (Influenza A virus)', 'pIC50', 6.85),
  ('O=C(O)[C@@H]1CSC(c2ccccc2[N+](=O)[O-])N1 (mixture of isomers)', 'Neuraminidase (Influenza A virus)', 'pIC50', 4.65),
  ('N#Cc1ccc(C2SC[C@@H](C(=O)O)N2C(=O)CN)cc1 (mixture of isomers)', 'Neuraminidase (Influenza A virus)', 'pIC50', 6.09),
  ('COc1cccc(C2SC[C@@H](C(=O)O)N2C(=O)CCl)c1O (mixture of isomers)', 'Neuraminidase (Influenza A virus)', 'pIC50', 5.10),
  ('O=C(O)[C@@H]1CSC(c2ccccc2)N1 (mixture of isomers)', 'Neuraminidase (Influenza A virus)', 'pIC50', 4.67);

Neuraminidase (Influenza A virus) pIC50 of O=C(O)[C@@H]1CSC(c2ccccc2[N+](=O)[O-])N1C(=O)CCl (mixture of isomers) is 5.12

Measured on Neuraminidase (Influenza A virus), O=C(O)[C@@H]1CSC(c2ccco2)N1C(=O)Cc1ccccc1 (mixture of isomers) has a documented pIC50 of 5.54

O=C(O)[C@@H]1CSC(c2ccccc2O)N1 (mixture of isomers) tested on Neuraminidase (Influenza A virus) gave pIC50: 4.69

pIC50 for Neuraminidase (Influenza A virus) with input NCC(=O)N1C(c2ccccc2)SC[C@H]1C(=O)O (mixture of isomers) equals 6.28

Assay Neuraminidase (Influenza A virus), sample NCC(=O)N1C(c2ccccc2O)SC[C@H]1C(=O)O (mixture of isomers) , pIC50 read: 6.68

* * *

compounds and their reported pIC50
# SUBJECT_OF_TEST: Neuraminidase (Influenza A virus, UniProt B4URF0)
Scale note: pIC50 = -log10(concentration in M).

INSERT INTO assay_data (compound, value_reported) VALUES
  ('O=C(O)[C@@H]1CSC(c2ccccc2O)N1C(=O)Cc1ccccc1 (mixture of isomers)', 6.19);

Entry under test: COc1cccc(C2SC[C@@H](C(=O)O)N2C(=O)Cc2ccccc2)c1O (mixture of isomers) . Its pIC50 was 5.79

Briefly, pIC50 measured for O=C(O)[C@@H]1CSC(c2ccccc2)N1C(=O)Cc1ccccc1 (mixture of isomers) : 5.92

// field: pIC50; key: O=C(O)[C@@H]1CSC(c2ccco2)N1 (mixture of isomers) ; value = 4.37

pIC50 in this record for O=C(O)c1ccccc1C1SC[C@@H](C(=O)O)N1C(=O)CCl (mixture of isomers) : 4.97

* * *

# SUBJECT_OF_TEST: Neuraminidase (Influenza A virus)
pIC50: −log10 of the molar value.
Returns 1.0 if the recorded pIC50 is greater than or equal to 5, and 0.0 otherwise.

INSERT INTO assay_data (molecule, class) VALUES
  ('O=C(O)[C@@H]1CSC(c2ccccc2O)N1C(=O)CCl (mixture of isomers)', 1.0),
  ('O=C(O)c1ccccc1C1N[C@H](C(=O)O)CS1 (mixture of isomers)', 0.0),
  ('NCC(=O)N1C(c2ccco2)SC[C@H]1C(=O)O (mixture of isomers)', 1.0),
  ('NCC(=O)N1C(c2ccccc2C(=O)O)SC[C@H]1C(=O)O (mixture of isomers)', 1.0),
  ('N#Cc1ccc(C2SC[C@@H](C(=O)O)N2C(=O)Cc2ccccc2)cc1 (mixture of isomers)', 1.0);

Now for a further molecule.
Q: Is reported pIC50 greater than or equal to 5 here: O=C(O)c1ccccc1C1SC[C@@H](C(=O)O)N1C(=O)Cc1ccccc1 (mixture of isomers)
A: 1.0
